Tested on: Staphylococcus aureus
Assay: Antimicrobial activity against Staphylococcus aureus ISP217 by serial dilution method
Format: functional
Below, each of the molecules is paired with its reported MIC value.

molecule	censorSymbol	MIC (µg/mL)
CC[C@H]1OC(=O)[C@H](C)[C@@H](O[C@H]2C[C@@](C)(OC)[C@@H](O)[C@H](C)O2)[C@H](C)[C@@H](O[C@@H]2O[C@H](C)C[C@H](N(C)C)[C@H]2O)[C@](C)(O)C[C@@H](C)C(=O)[C@H](C)[C@@H](O)[C@]1(C)O [ERYTHROMYCIN]	>	256
CC[C@H]1OC(=O)[C@H](C)[C@@H](O[C@H]2C[C@@](C)(OC)[C@@H](OC=O)[C@H](C)O2)[C@H](C)[C@@H](O[C@@H]2O[C@H](C)C[C@H](N(C)C)[C@H]2OC(C)=O)[C@@]2(C)CC(C)=C(O2)[C@H](C)[C@@H](OC(=O)C(C)C)[C@]1(C)OC(=O)C(C)C	=	16
CC[C@H]1OC(=O)[C@H](C)[C@@H](OCc2cn(CC(=O)O)nn2)[C@H](C)[C@@H](O[C@@H]2O[C@H](C)C[C@H](N(C)C)[C@H]2O)[C@@]2(C)CC(C)=C(O2)[C@H](C)[C@@H](OC(=O)C(C)C)[C@]1(C)OC(=O)C(C)C	>	128
CC[C@H]1OC(=O)[C@H](C)[C@@H](OCc2cn(CC(=O)OCc3ccccc3)nn2)[C@H](C)[C@@H](O[C@@H]2O[C@H](C)C[C@H](N(C)C)[C@H]2O)[C@@]2(C)CC(C)=C(O2)[C@H](C)[C@@H](OC(=O)C(C)C)[C@]1(C)OC(=O)C(C)C	=	16
CC[C@H]1OC(=O)[C@H](C)[C@@H](O)[C@H](C)[C@@H](O[C@@H]2O[C@H](C)C[C@H](N(C)C)[C@H]2OC(C)=O)[C@@]2(C)CC(C)=C(O2)[C@H](C)[C@@H](OC(=O)C(C)C)[C@]1(C)OC(=O)C(C)C	=	64
C#CCO[C@H]1[C@H](C)[C@@H](O[C@@H]2O[C@H](C)C[C@H](N(C)C)[C@H]2O)[C@@]2(C)CC(C)=C(O2)[C@H](C)[C@@H](OC(=O)C(C)C)[C@](C)(OC(=O)C(C)C)[C@@H](CC)OC(=O)[C@@H]1C	=	16
CC[C@H]1OC(=O)[C@H](C)[C@@H](OCc2cn(-c3cnc4ccccc4c3)nn2)[C@H](C)[C@@H](O[C@@H]2O[C@H](C)C[C@H](N(C)C)[C@H]2O)[C@@]2(C)CC(C)=C(O2)[C@H](C)[C@@H](OC(=O)C(C)C)[C@]1(C)OC(=O)C(C)C	=	16
CC[C@H]1OC(=O)[C@H](C)[C@@H](OCc2cn(C34CC5CC(CC(C5)C3)C4)nn2)[C@H](C)[C@@H](O[C@@H]2O[C@H](C)C[C@H](N(C)C)[C@H]2O)[C@@]2(C)CC(C)=C(O2)[C@H](C)[C@@H](OC(=O)C(C)C)[C@]1(C)OC(=O)C(C)C	=	8
CC[C@H]1OC(=O)[C@H](C)[C@@H](O[C@H]2C[C@@](C)(OC)[C@@H](O)[C@H](C)O2)[C@H](C)[C@@H](O[C@@H]2O[C@H](C)C[C@H](N(C)C)[C@H]2O)[C@@]2(C)CC(C)=C(O2)[C@H](C)[C@@H](OC(=O)C(C)C)[C@]1(C)OC(=O)C(C)C	=	16
CC[C@H]1OC(=O)[C@H](C)[C@@H](OCc2cn(CCO)nn2)[C@H](C)[C@@H](O[C@@H]2O[C@H](C)C[C@H](N(C)C)[C@H]2O)[C@@]2(C)CC(C)=C(O2)[C@H](C)[C@@H](OC(=O)C(C)C)[C@]1(C)OC(=O)C(C)C	=	128
CC[C@H]1OC(=O)[C@H](C)[C@@H](OCc2cn(Cc3ccccc3)nn2)[C@H](C)[C@@H](O[C@@H]2O[C@H](C)C[C@H](N(C)C)[C@H]2O)[C@@]2(C)CC(C)=C(O2)[C@H](C)[C@@H](OC(=O)C(C)C)[C@]1(C)OC(=O)C(C)C	=	16
CC[C@H]1OC(=O)[C@H](C)[C@@H](OCc2cn(-c3cccnc3)nn2)[C@H](C)[C@@H](O[C@@H]2O[C@H](C)C[C@H](N(C)C)[C@H]2O)[C@@]2(C)CC(C)=C(O2)[C@H](C)[C@@H](OC(=O)C(C)C)[C@]1(C)OC(=O)C(C)C	=	16
CC[C@H]1OC(=O)[C@H](C)[C@@H](OCc2cn(CC(=O)Nc3ccccn3)nn2)[C@H](C)[C@@H](O[C@@H]2O[C@H](C)C[C@H](N(C)C)[C@H]2O)[C@@]2(C)CC(C)=C(O2)[C@H](C)[C@@H](OC(=O)C(C)C)[C@]1(C)OC(=O)C(C)C	=	16
CC[C@H]1OC(=O)[C@H](C)[C@@H](OCc2cn(CSc3ccccc3)nn2)[C@H](C)[C@@H](O[C@@H]2O[C@H](C)C[C@H](N(C)C)[C@H]2O)[C@@]2(C)CC(C)=C(O2)[C@H](C)[C@@H](OC(=O)C(C)C)[C@]1(C)OC(=O)C(C)C	=	16
CC[C@H]1OC(=O)[C@H](C)[C@@H](OCc2cn(-c3cccc4ccccc34)nn2)[C@H](C)[C@@H](O[C@@H]2O[C@H](C)C[C@H](N(C)C)[C@H]2O)[C@@]2(C)CC(C)=C(O2)[C@H](C)[C@@H](OC(=O)C(C)C)[C@]1(C)OC(=O)C(C)C	=	16
